B1: LINE1-full (parent)
chain: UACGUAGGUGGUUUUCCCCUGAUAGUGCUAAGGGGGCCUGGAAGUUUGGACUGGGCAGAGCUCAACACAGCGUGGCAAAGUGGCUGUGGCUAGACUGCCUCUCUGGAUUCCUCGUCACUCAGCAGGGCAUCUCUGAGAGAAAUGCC

Variants of: B1
Test: self-cleavage, relative activity (ratio to wild type); higher = more cleavage; in vitro, sequencing; the parent is a self-cleaving ribozyme
Quick list: self-cleavage per entry.
QUANTITY KIND: self-cleavage

{"MUTATION": "G105A G114C", "QUANTITY KIND": "self-cleavage", "REPORTED RESULT": 1.42}
{"MUTATION": "U104C A142G", "QUANTITY KIND": "self-cleavage", "REPORTED RESULT": 1.81}
{"MUTATION": "U14G", "QUANTITY KIND": "self-cleavage", "REPORTED RESULT": 0.82}
{"MUTATION": "U13C G126U", "QUANTITY KIND": "self-cleavage", "REPORTED RESULT": 1.2}
{"MUTATION": "U9A A42U", "QUANTITY KIND": "self-cleavage", "REPORTED RESULT": 1.09}
{"MUTATION": "U45G U119G", "QUANTITY KIND": "self-cleavage", "REPORTED RESULT": 0.44}
{"MUTATION": "G72A G83A", "QUANTITY KIND": "self-cleavage", "REPORTED RESULT": 1.53}
{"MUTATION": "A43G C84U", "QUANTITY KIND": "self-cleavage", "REPORTED RESULT": 0.16}
{"MUTATION": "U14C G55C", "QUANTITY KIND": "self-cleavage", "REPORTED RESULT": 0.09}
{"MUTATION": "C120A G139U", "QUANTITY KIND": "self-cleavage", "REPORTED RESULT": 1.59}
{"MUTATION": "C17A A42G", "QUANTITY KIND": "self-cleavage", "REPORTED RESULT": 1.13}
{"MUTATION": "C63U U85C", "QUANTITY KIND": "self-cleavage", "REPORTED RESULT": 0.08}
{"MUTATION": "U62C U96G", "QUANTITY KIND": "self-cleavage", "REPORTED RESULT": 0}
{"MUTATION": "U46C G125U", "QUANTITY KIND": "self-cleavage", "REPORTED RESULT": 0.8}
{"MUTATION": "G27A", "QUANTITY KIND": "self-cleavage", "REPORTED RESULT": 1.07}
{"MUTATION": "A6U A117G", "QUANTITY KIND": "self-cleavage", "REPORTED RESULT": 0.3}
{"MUTATION": "A92U U119A", "QUANTITY KIND": "self-cleavage", "REPORTED RESULT": 0.72}
{"MUTATION": "G33U G126C", "QUANTITY KIND": "self-cleavage", "REPORTED RESULT": 1.21}
{"MUTATION": "G36C U96C", "QUANTITY KIND": "self-cleavage", "REPORTED RESULT": 0.17}
{"MUTATION": "U47G C146A", "QUANTITY KIND": "self-cleavage", "REPORTED RESULT": 1.22}
{"MUTATION": "U1C U104A", "QUANTITY KIND": "self-cleavage", "REPORTED RESULT": 0.75}
{"MUTATION": "U85C C113A", "QUANTITY KIND": "self-cleavage", "REPORTED RESULT": 0.08}
{"MUTATION": "U46A A140G", "QUANTITY KIND": "self-cleavage", "REPORTED RESULT": 0.9}
{"MUTATION": "A107U A117G", "QUANTITY KIND": "self-cleavage", "REPORTED RESULT": 1.34}
{"MUTATION": "U73A U104A", "QUANTITY KIND": "self-cleavage", "REPORTED RESULT": 1.09}
{"MUTATION": "C19U U20C", "QUANTITY KIND": "self-cleavage", "REPORTED RESULT": 0.93}
{"MUTATION": "U12A U96G", "QUANTITY KIND": "self-cleavage", "REPORTED RESULT": 0.38}
{"MUTATION": "G75C U119A", "QUANTITY KIND": "self-cleavage", "REPORTED RESULT": 0.95}
{"MUTATION": "A42C G54A", "QUANTITY KIND": "self-cleavage", "REPORTED RESULT": 0.13}
{"MUTATION": "C19A U100A", "QUANTITY KIND": "self-cleavage", "REPORTED RESULT": 0.51}
{"MUTATION": "U73C C110U", "QUANTITY KIND": "self-cleavage", "REPORTED RESULT": 2.11}
{"MUTATION": "C3U A142G", "QUANTITY KIND": "self-cleavage", "REPORTED RESULT": 0.47}
{"MUTATION": "C56A A121G", "QUANTITY KIND": "self-cleavage", "REPORTED RESULT": 0.03}
{"MUTATION": "A69G U73C", "QUANTITY KIND": "self-cleavage", "REPORTED RESULT": 0.59}
{"MUTATION": "A92G G126A", "QUANTITY KIND": "self-cleavage", "REPORTED RESULT": 0.13}
{"MUTATION": "G86A A92G", "QUANTITY KIND": "self-cleavage", "REPORTED RESULT": 0.02}
{"MUTATION": "U100C", "QUANTITY KIND": "self-cleavage", "REPORTED RESULT": 1.79}
{"MUTATION": "A42G U45A", "QUANTITY KIND": "self-cleavage", "REPORTED RESULT": 1.4}
{"MUTATION": "U20C A142G", "QUANTITY KIND": "self-cleavage", "REPORTED RESULT": 1.36}
{"MUTATION": "U102A U119C", "QUANTITY KIND": "self-cleavage", "REPORTED RESULT": 2.01}
{"MUTATION": "A59G A69U", "QUANTITY KIND": "self-cleavage", "REPORTED RESULT": 0.06}
{"MUTATION": "C19U G105U", "QUANTITY KIND": "self-cleavage", "REPORTED RESULT": 1.55}
{"MUTATION": "U20C C101U", "QUANTITY KIND": "self-cleavage", "REPORTED RESULT": 1.11}
{"MUTATION": "A2G A69U", "QUANTITY KIND": "self-cleavage", "REPORTED RESULT": 0.15}
{"MUTATION": "U91A C116U", "QUANTITY KIND": "self-cleavage", "REPORTED RESULT": 0.53}
{"MUTATION": "U46G A69U", "QUANTITY KIND": "self-cleavage", "REPORTED RESULT": 0.1}
{"MUTATION": "G49A U143G", "QUANTITY KIND": "self-cleavage", "REPORTED RESULT": 1.1}
{"MUTATION": "A24C U91A", "QUANTITY KIND": "self-cleavage", "REPORTED RESULT": 0.57}
{"MUTATION": "A67C C123A", "QUANTITY KIND": "self-cleavage", "REPORTED RESULT": 0.07}
{"MUTATION": "U12C A92C", "QUANTITY KIND": "self-cleavage", "REPORTED RESULT": 0.81}
{"MUTATION": "U9A U100C", "QUANTITY KIND": "self-cleavage", "REPORTED RESULT": 1.18}
{"MUTATION": "U46C U52A", "QUANTITY KIND": "self-cleavage", "REPORTED RESULT": 1.45}
{"MUTATION": "G89A U119C", "QUANTITY KIND": "self-cleavage", "REPORTED RESULT": 0.06}
{"MUTATION": "U5A C90G", "QUANTITY KIND": "self-cleavage", "REPORTED RESULT": 0.09}
{"MUTATION": "U45G A121C", "QUANTITY KIND": "self-cleavage", "REPORTED RESULT": 2.14}
{"MUTATION": "A64U G126A", "QUANTITY KIND": "self-cleavage", "REPORTED RESULT": 0.37}
{"MUTATION": "G4A U96A", "QUANTITY KIND": "self-cleavage", "REPORTED RESULT": 0.08}
{"MUTATION": "U29G G137U", "QUANTITY KIND": "self-cleavage", "REPORTED RESULT": 1.04}
{"MUTATION": "U62C G82A", "QUANTITY KIND": "self-cleavage", "REPORTED RESULT": 0.04}
{"MUTATION": "U23A U100C", "QUANTITY KIND": "self-cleavage", "REPORTED RESULT": 1.26}
{"MUTATION": "C111A A141U", "QUANTITY KIND": "self-cleavage", "REPORTED RESULT": 1.14}
{"MUTATION": "U85A G127A", "QUANTITY KIND": "self-cleavage", "REPORTED RESULT": 0.06}
{"MUTATION": "U45A U73A", "QUANTITY KIND": "self-cleavage", "REPORTED RESULT": 1.91}
{"MUTATION": "U62C U143G", "QUANTITY KIND": "self-cleavage", "REPORTED RESULT": 0.08}
{"MUTATION": "A67U A142U", "QUANTITY KIND": "self-cleavage", "REPORTED RESULT": 0.14}
{"MUTATION": "U20C A136U", "QUANTITY KIND": "self-cleavage", "REPORTED RESULT": 1.51}
{"MUTATION": "C84U A129G", "QUANTITY KIND": "self-cleavage", "REPORTED RESULT": 0.18}
{"MUTATION": "A2G U130C", "QUANTITY KIND": "self-cleavage", "REPORTED RESULT": 0.56}
{"MUTATION": "U85C U130A", "QUANTITY KIND": "self-cleavage", "REPORTED RESULT": 0.35}
{"MUTATION": "U73G U112G", "QUANTITY KIND": "self-cleavage", "REPORTED RESULT": 0}
{"MUTATION": "U12C C18G", "QUANTITY KIND": "self-cleavage", "REPORTED RESULT": 2.1}
{"MUTATION": "G10U U130C", "QUANTITY KIND": "self-cleavage", "REPORTED RESULT": 0.81}
{"MUTATION": "U13C C128U", "QUANTITY KIND": "self-cleavage", "REPORTED RESULT": 0.78}
{"MUTATION": "C63U C90U", "QUANTITY KIND": "self-cleavage", "REPORTED RESULT": 0}
{"MUTATION": "G70U U81C", "QUANTITY KIND": "self-cleavage", "REPORTED RESULT": 0.3}
{"MUTATION": "U13C C116U", "QUANTITY KIND": "self-cleavage", "REPORTED RESULT": 0.7}
{"MUTATION": "U20A U87A", "QUANTITY KIND": "self-cleavage", "REPORTED RESULT": 0.11}
{"MUTATION": "U96A G139C", "QUANTITY KIND": "self-cleavage", "REPORTED RESULT": 0.04}
{"MUTATION": "G74A U112C", "QUANTITY KIND": "self-cleavage", "REPORTED RESULT": 0.66}
{"MUTATION": "A2G A30U", "QUANTITY KIND": "self-cleavage", "REPORTED RESULT": 0.85}
{"MUTATION": "A31G C110U", "QUANTITY KIND": "self-cleavage", "REPORTED RESULT": 0.51}
